tested on: HepG2-GM130-SQSTM1; assay: phenotypically active (imaging signature differs from DMSO and reproducible) at any of 0.3-9 uM (binary (1 = active, 0 = inactive)); higher = active; settings: treatment time: 24 h
Where a name gives a salt, the structure may show the parent alone.
Allowed answers: active, inactive

// below: answered molecules
molecule: COc1ncc2cc(C(=O)Nc3cc(C(=O)NCc4cccc(Cl)c4)ccc3Cl)c(=O)[nH]c2n1
discrete.label: inactive
--
molecule: O=C1NCCCC1C(=O)NCCc1c[nH]c2ccc(O)cc12 (centres undefined)
discrete.label: inactive
--
molecule: O=C(NCCN1CCC(n2c(=O)[nH]c3ccccc32)CC1)c1cc2cc(F)ccc2[nH]1
discrete.label: active
--
molecule: COC(=O)[C@H]1[C@H]2C[C@H]3c4[nH]c5ccccc5c4CCN3C[C@H]2CC[C@@H]1O [Rauwolscine hydrochloride]
discrete.label: inactive
--
molecule: COc1ccc2c(c1OC)C(=O)O[C@@H]2[C@H]1c2c(cc3c(c2OC)OCO3)CCN1C [Noscapine hydrochloride]
discrete.label: inactive
--
molecule: NC1=NCC2c3ccccc3Cc3ccccc3N12 (centres undefined) [epinastine]
discrete.label: inactive

Tell me the recorded outcome of this test for C[C@H](NC(=O)CCc1nc2ccccc2c(=O)[nH]1)c1ccccc1 . inactive

Tell me the recorded outcome of this test for Cc1c[nH]c2ncnc(-c3ccc(NC(=O)N(CCO)c4ccccc4)cc3)c12 . inactive

Tell me the recorded outcome of this test for O=C(/C=C/N1C[C@H]2C[C@@H]1CN2c1ccccn1)c1ccccc1O . inactive

====

system: HepG2-GM130-SQSTM1; assay: phenotypically active (imaging signature differs from DMSO and reproducible) at any of 0.3-9 uM (binary (1 = active, 0 = inactive)); higher = active; conditions: treatment time: 24 h
Kindly supply the reported phenotypically active values for the records listed here.
Numbers only.

molecule: CC[N+](C)(CC)CCOC(=O)C1c2ccccc2Oc2ccccc21
assay.system: HepG2-GM130-SQSTM1
phenotypically active: 0

molecule: COCCCOc1ccnc(CS(=O)c2nc3ccccc3[nH]2)c1C (centres undefined)
assay.system: HepG2-GM130-SQSTM1
phenotypically active: 0

molecule: CN1CCCC(n2nc(Cc3ccc(Cl)cc3)c3ccccc3c2=O)CC1 (centres undefined)
assay.system: HepG2-GM130-SQSTM1
phenotypically active: 1

molecule: O=C(Nc1cccc(Br)c1)c1cccc(S(=O)(=O)N2CCCCCC2)c1
assay.system: HepG2-GM130-SQSTM1
phenotypically active: 0

molecule: CC(=O)N1CCN(c2ccc(OC[C@H]3CO[C@](Cn4ccnc4)(c4ccc(Cl)cc4Cl)O3)cc2)CC1
assay.system: HepG2-GM130-SQSTM1
phenotypically active: 0

# per-item lookup of phenotypically active; items listed below
1. COc1c(C)cnc(Cn2cnc3c(Cl)nc(N)nc32)c1C
2. CCCCCCCCCCCCCCCC[n+]1ccn(Cc2ccccc2)c1C
3. O=C(OC12CC3CC(CC(C3)C1)C2)c1ccc(NCc2cc(O)ccc2O)cc1
4. CCCCOc1cc(C(=O)NCCN(CC)CC)c2ccccc2n1

1: 1; 2: 1; 3: 1; 4: 0

====

Kindly supply the reported phenotypically active values for the records listed here.
system: WPMY1-TUBA1B-RELA; test: phenotypically active (imaging signature differs from DMSO and reproducible) at any of 0.3-9 uM (binary (1 = active, 0 = inactive)); higher = active; settings: treatment time: 24 h
Structures can show the parent of a compound that is named as a salt.

compound: CC(C)C(=O)Nc1ncc(-c2cc(C(F)F)nn2-c2c(Cl)cccc2Cl)s1
reported.endpoint: phenotypically active
reported.measurement: 1 (active)
//
compound: COc1cc2c(cc1OC)C(=O)C(CC1CCN(Cc3ccccc3)CC1)C2 (centres undefined)
reported.endpoint: phenotypically active
reported.measurement: 0 (inactive)
//
compound: COC(=O)C(Cc1ccc(OCCn2c(=O)sc3cc(C(=O)c4ccccc4)ccc32)cc1)C(=O)OC
reported.endpoint: phenotypically active
reported.measurement: 0 (inactive)
//
compound: Nc1nnc2[nH]c3ccccc3nc1-2
reported.endpoint: phenotypically active
reported.measurement: 0 (inactive)

# per-item lookup of phenotypically active; items listed below
1. CCCCCCC(=O)OC1CC(C)(C)NC(C)(C)C1 [TMPH hydrochloride]
2. C[C@@H]1CN(Cc2ccc(F)cc2)[C@@H](C)CN1C(=O)c1cc2c(C(=O)C(=O)N(C)C)cn(C)c2cc1Cl [SCIO 469 hydrochloride]
3. CC(c1cc2ccccc2s1)N(O)C(N)=O (centres undefined)
4. COc1ccc(CCNCc2ccc(OCc3ccc(Cl)nc3)c(OC)c2)cc1OC [SBE 13 hydrochloride]
5. O=c1cc(-c2ccc(O)cc2)oc2cc(O)cc(O)c12

["0 (inactive)", "0 (inactive)", "0 (inactive)", "1 (active)", "1 (active)"]

====

tested on: WPMY1-GM130-SQSTM1; assay: phenotypically active (imaging signature differs from DMSO and reproducible) at any of 0.3-9 uM (binary (1 = active, 0 = inactive)); higher = active; details: treatment time: 24 h
Allowed answers: True = active, False = inactive

// below: answered compounds
compound: NS(=O)(=O)c1cc2c(cc1Cl)NC(C(Cl)Cl)NS2(=O)=O (centres undefined) [trichlormethiazide]
discrete.label: False
//
compound: C(=C/c1ccccc1)/CN1CCN(C(c2ccccc2)c2ccccc2)CC1
discrete.label: False
//
compound: CCOc1cc(N2CCC(O)CC2)ccc1Nc1ncc2c(n1)N(C)c1ccccc1C(=O)N2C
discrete.label: True

Tell me the recorded outcome of this test for O=C1c2c(O)cccc2Cc2cccc(O)c21 . True

Tell me the recorded outcome of this test for CCc1c(C)[nH]c2c1C(=O)C(CN1CCOCC1)CC2 (centres undefined) . False

Tell me the recorded outcome of this test for O=C(Nc1cc(C(F)(F)F)cc(C(F)(F)F)c1)c1cnc(Cl)nc1C(F)(F)F . False

====

test system: WPMY1-CANX-COX4; assay: phenotypically active (imaging signature differs from DMSO and reproducible) at any of 0.3-9 uM (binary (1 = active, 0 = inactive)); higher = active; conditions: treatment time: 24 h
Counter-ions that a name gives are not always drawn.
Kindly supply the reported phenotypically active values for the records listed here.

Study these solved cases before continuing.
compound: CC1=C(/C=C/C(C)=C\C=C\C(C)=C\C(=O)O)C(C)(C)CCC1
phenotypically active: 1 (active)
//
compound: O=C(O)/C(Cc1ccccc1[N+](=O)[O-])=N\Nc1nc(-c2ccc(Cl)c(Cl)c2)cs1
phenotypically active: 0 (inactive)
//
compound: O=C(NCCN1CCC(n2c(=O)[nH]c3ccccc32)CC1)c1cc2cc(F)ccc2[nH]1
phenotypically active: 1 (active)
//
compound: O=C(O)c1ccc(Nc2ncc3c(n2)-c2ccc(Cl)cc2C(c2c(F)cccc2F)=NC3)cc1
phenotypically active: 1 (active)
//
compound: CC[N+](C)(CC)CCOC(=O)C1c2ccccc2Oc2ccccc21
phenotypically active: 0 (inactive)

# per-item lookup of phenotypically active; items listed below
1. C=CC(=O)Nc1cccc(CN2C(=O)N(c3c(Cl)c(OC)cc(OC)c3Cl)Cc3cnc(NCCCCN(CC)CC)nc32)c1 [FIIN 1 hydrochloride]
2. CCN(CC)CCCC(C)Nc1ccnc2cc(Cl)ccc12 (centres undefined)
3. O=C1C=C(O)C(=O)c2ccccc21 [2-Hydroxy-[1,4]naphthoquinone]
4. C/C(=C/C(=O)Nc1ccccc1C(=O)O)c1ccc2ccccc2c1

1: 1 (active); 2: 1 (active); 3: 0 (inactive); 4: 0 (inactive)

====

system: WPMY1-TP53BP1-CLTA; assay: lowest phenotypically active concentration; higher = less potent; details: treatment time: 24 h
reported.endpoint: lowest phenotypically active concentration

Study these solved cases before continuing.
smi: Oc1ccc(-c2nc(-c3ccc(F)cc3)c(-c3ccncc3)[nH]2)cc1
reported.measurement: 9 µM
//
smi: Clc1ccc(C2(c3ccc(-c4cn[nH]c4)cc3)CCNCC2)cc1
reported.measurement: 1 µM
//
smi: CCOC(=O)Nc1cc(-c2ccc(C)c(NS(C)(=O)=O)c2)nn2c(C)nnc12
reported.measurement: 1 µM
//
smi: Cc1ccc(C(=O)N(CCCN)[C@@H](c2nc3cc(Cl)ccc3c(=O)n2Cc2ccccc2)C(C)C)cc1
reported.measurement: ≤ 0.3 µM
//
smi: CC(=O)O[C@H]1C(=O)[C@@]2(C)[C@H]([C@H](OC(=O)c3ccccc3)[C@]3(O)C[C@H](OC(=O)[C@H](O)[C@@H](NC(=O)c4ccccc4)c4ccccc4)C(C)=C1C3(C)C)[C@]1(OC(C)=O)CO[C@@H]1C[C@@H]2O
reported.measurement: ≤ 0.3 µM

# per-item lookup of lowest phenotypically active concentration; items listed below
1. Nc1cc(C(F)(F)F)c(-c2cc(N3CCOCC3)nc(N3CCOCC3)n2)cn1
2. O=C(CCCCSc1nc(-c2ccc(-c3ccccc3)cc2)cc(=O)[nH]1)NO
3. CC(C)NCCCn1c(Sc2cc3c(cc2I)OCO3)nc2c(N)ncnc21
4. CCN(CCO)CCCOc1ccc2c(Nc3cc(CC(=O)Nc4cccc(F)c4)n[nH]3)ncnc2c1
5. Cc1nc(NC(=O)N2CCC[C@H]2C(N)=O)sc1-c1csc(C(C)(C)C)n1
6. COc1cc2ncnc(Nc3ccc(O)c(Br)c3)c2cc1OC
7. O=C(NOC[C@H](O)CO)c1ccc(F)c(F)c1Nc1ccc(I)cc1F

3 µM
≤ 0.3 µM
≤ 0.3 µM
≤ 0.3 µM
3 µM
3 µM
1 µM
